Metric: melting point

Worked cases, answers included:
Compound	Reported result
Cc1ccc(NC(=O)NCc2cn(CCCCS(N)(=O)=O)nn2)cc1 [Compound 45]	271 to 272 °C
NS(=O)(=O)CCCn1cc(COc2ccccc2)nn1 [Compound 27]	254 to 255 °C
NS(=O)(=O)CCCn1cc(CNC(=O)Nc2ccc(F)cc2)nn1 [Compound 31]	249 to 252 °C
NS(=O)(=O)CCCCn1cc(COc2ccc(F)cc2)nn1 [Compound 41]	246 to 248 °C
COc1ccc(OCc2cn(CCCS(N)(=O)=O)nn2)cc1 [Compound 29]	273 to 274 °C
NS(=O)(=O)CCCCn1cc(CNC(=O)Nc2ccc(F)cc2)nn1 [Compound 44]	284 to 286 °C
COc1cccc(NC(=O)NCc2cn(CCCCS(N)(=O)=O)nn2)c1 [Compound 48]	217 to 218 °C
Cc1ccc(NC(=O)NCc2cn(CCCS(N)(=O)=O)nn2)cc1 [Compound 32]	217 to 218 °C

Recorded melting point (compound NS(=O)(=O)CCCn1cc(CNC(=O)Nc2ccc(C(F)(F)F)cc2)nn1 [Compound 33] ): > 300 °C

Recorded melting point (compound COc1cccc(OCc2cn(CCCS(N)(=O)=O)nn2)c1 [Compound 30] ): 270 to 272 °C

Recorded melting point (compound NS(=O)(=O)CCCn1cc(COc2ccc(F)cc2)nn1 [Compound 28] ): 261 to 263 °C

Recorded melting point (compound NS(=O)(=O)CCCCn1cc(COc2ccccc2)nn1 [Compound 40] ): 221 to 223 °C

Recorded melting point (compound NS(=O)(=O)CCCCn1cc(CNC(=O)Nc2ccc(C(F)(F)F)cc2)nn1 [Compound 46] ): > 300 °C

Recorded melting point (compound CCOC(=O)c1ccc(NC(=O)NCc2cn(CCCCS(N)(=O)=O)nn2)cc1 [Compound 47] ): 259 to 261 °C
